System: TK-10 renal
Assay: NCI tumour cell line growth inhibition, 48 h
Listed here: items and their measured TGI.
Reply with just the number (in µM).

Would you please look over these solved cases?
{"moleculeSmiles": "CCC[CH2][Sn]([CH2]CCC)([O]C(=O)c1cc(F)cc(F)c1)[O][Sn]([CH2]CCC)([CH2]CCC)[O]C(=O)c1cc(F)cc(F)c1", "resultNumber": 2.72}
{"moleculeSmiles": "CCCN1C(=O)/C(=C/c2ccc(O)cc2)SC1=Nc1ccc(OC)cc1", "resultNumber": 39}
{"moleculeSmiles": "O=C1C(Cl)=C(N2CCN(c3ccccn3)CC2)C(=O)c2ncccc21", "resultNumber": 9.75}
{"moleculeSmiles": "CC[C@@H](/C=C\\CCC1(C[C@@H](N)CCC=C(C)C)OCCO1)O[Si](C(C)C)(C(C)C)C(C)C", "resultNumber": 31.2}

[Q] Entry COc1ccc(/C=C2/CCS(=O)(=O)c3ccc(C)cc3C2=O)cc1OC has what TGI?
[A] 37.5

From: PubChem BioAssay (NCI)
